Listed next: entries and their corresponding % Inhib CDK4/D @ 1 μM.
- Experimental Target: CDK4/cyclin D3 (Homo sapiens)
- Construct: made in house; host or cells: insect cells (baculovirus co-infection)
- Sequence (P11802 whole entry): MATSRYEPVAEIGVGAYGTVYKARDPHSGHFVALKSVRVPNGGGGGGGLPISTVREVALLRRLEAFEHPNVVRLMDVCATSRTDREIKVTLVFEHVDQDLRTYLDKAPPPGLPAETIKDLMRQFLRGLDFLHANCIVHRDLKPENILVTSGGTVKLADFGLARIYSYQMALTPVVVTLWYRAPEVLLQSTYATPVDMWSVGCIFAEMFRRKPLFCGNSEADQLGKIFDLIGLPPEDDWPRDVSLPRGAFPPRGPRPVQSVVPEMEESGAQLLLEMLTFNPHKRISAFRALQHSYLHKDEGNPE
- Sequence (P30281 1-264 partner limits assumed): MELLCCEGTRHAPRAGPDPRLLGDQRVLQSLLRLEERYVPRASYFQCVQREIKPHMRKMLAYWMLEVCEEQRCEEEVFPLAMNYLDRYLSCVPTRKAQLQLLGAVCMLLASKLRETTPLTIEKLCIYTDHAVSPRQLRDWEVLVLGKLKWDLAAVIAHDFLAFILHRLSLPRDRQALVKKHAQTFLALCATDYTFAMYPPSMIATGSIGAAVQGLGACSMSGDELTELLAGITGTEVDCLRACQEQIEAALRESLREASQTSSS
- Procedure Details: Inhibition of CDK4/Cyclin D retinoblastoma kinase activity;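 note: relative to DMSO control wells without compound minus no-enzyme background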
- Type: biochemical
- Experimental Parameters: test compound at 1 μM (head line shifted: 'mM' printed beside 'Structure'); 1 µM

{"Compound": "CC(C)CCOC(=O)CS(=O)(=O)c1ccc(Nc2nc(N)c(C(=O)c3c(Cl)cccc3Cl)s2)cc1 [DD(194)]", "Scale Unit": "%", "% Inhib CDK4/D @ 1 μM": 6.3}
{"Compound": "CN1CCCC(CS(=O)(=O)c2ccc(Nc3nc(N)c(C(=O)c4c(Cl)cccc4Cl)s3)cc2)C1 (stereo not shown) [DD(227)]", "Scale Unit": "%", "% Inhib CDK4/D @ 1 μM": 15.2}
{"Compound": "CCN(CC)C(=O)CS(=O)(=O)c1ccc(Nc2nc(N)c(C(=O)c3c(Cl)cccc3Cl)s2)cc1", "Scale Unit": "%", "% Inhib CDK4/D @ 1 μM": 10.3}
{"Compound": "Nc1nc(Nc2ccc(S(=O)(=O)CCN3CCCCC3)cc2)sc1C(=O)c1c(Cl)cccc1Cl [DD(171)]", "Scale Unit": "%", "% Inhib CDK4/D @ 1 μM": 17.1}

Values from patent US20040176431A1
